test system: CEM cells HIV-1 protection, formazan growth assay; assay: NCI AIDS Antiviral Assay; conditions: measured here: growth of uninfected CEM cells
pIC50: −log10 of the molar value.
# key: entry, value: pIC50

- compound: "Cc1cn(C2CC(N=[N+]=[N-])C(COC(=O)C3CCC(=O)N3)O2)c(=O)[nH]c1=O (stereo not given)"
  resultOperator: "="
  pIC50: 4.31
- compound: "CN(C)c1nc(N(C)C)nc(N2C(=O)c3ccccc3C2=O)n1"
  resultOperator: "="
  pIC50: 6.41
- compound: "O=c1cc(CO)oc(C(O)c2ccccc2)c1O (stereo not given)"
  resultOperator: "<"
  pIC50: 3.70
- compound: "Nc1cc(N2CCOCC2)nc(=O)n1-c1ccccc1"
  resultOperator: "<"
  pIC50: 3.70
- compound: "COC(=O)[C@H](Cc1ccccc1)NC(=O)N(CCN(CCC#N)C(=O)N[C@H](C(=O)OC)C(C)C)c1ccccc1"
  resultOperator: "="
  pIC50: 4.08

---

test system: CEM cells HIV-1 protection, formazan growth assay; experiment: NCI AIDS Antiviral Assay; details: measured here: growth of uninfected CEM cells
pIC50: −log10 of the molar value.
Measured pIC50 of individual entries
outcomeMeasure: pIC50

- compound: "CC(C)CCCC(C)[C@H]1CC[C@H]2[C@@H]3CC[C@H]4C[C@@H](CCC=C(c5cc(Cl)c(OCc6ccc(B7OC(C)(C)C(C)(C)O7)cc6)c(C(=O)OCc6ccc(B7OC(C)(C)C(C)(C)O7)cc6)c5)c5cc(Cl)c(OCc6ccc(B7OC(C)(C)C(C)(C)O7)cc6)c(C(=O)OCc6ccc(B7OC(C)(C)C(C)(C)O7)cc6)c5)CC[C@]4(C)[C@H]3CC[C@]12C (some centres not stated)"
  resultOperator: "<"
  obsValue: 3.70
- compound: "O=C(C[n+]1ccccc1)N/N=C(\\Cc1nc2ccc([N+](=O)[O-])cc2[nH]c1=O)C(=O)Nc1cc(Cl)c(Cl)cc1Cl"
  resultOperator: "="
  obsValue: 4.18
- compound: "CN(CC(=O)Nc1ccccc1C(=O)O)c1ccccc1"
  resultOperator: "="
  obsValue: 4.16
- compound: "COc1ccc2nc(N/N=C/c3ccc(C)s3)cc(C)c2c1"
  resultOperator: "="
  obsValue: 4.89
- compound: "Cc1ccc(/C=C(\\C#N)c2ccccc2)cc1"
  resultOperator: "<"
  obsValue: 3.64
- compound: "O=C1N=C2SC=C(NC(=S)Nc3ccccc3)N2NC12c1ccccc1-c1ccccc12"
  resultOperator: "="
  obsValue: 4.13
- compound: "C#[N+]CCOP(=O)(OCC1OC(n2cc(C)c(=O)[nH]c2=O)CC1N=[N+]=[N-])O[C@H]1CC[C@@]2(C)C(=CC[C@H]3[C@@H]4CC[C@H](C(C)CCCC(C)C)[C@@]4(C)CC[C@@H]32)C1 (some centres not stated)"
  resultOperator: "<"
  obsValue: 3.70

---

List of IC50 values.
tested on: CEM cells HIV-1 protection, formazan growth assay; assay: NCI AIDS Antiviral Assay; settings: measured here: growth of uninfected CEM cells

- compound: "Cn1nc2c(c1N)Cc1c(nn(C)c1N)-c1ccccc1-2"
  uom: "µM"
  resultOperator: "="
  IC50: 191
- compound: "O=c1c2cccnc2nc2ccc3c[nH][nH]c3c12"
  uom: "µM"
  resultOperator: "="
  IC50: 87.1
- compound: "Clc1ccc(CSc2ccc3nncc(SCc4ccc(Cl)cc4)c3c2)cc1"
  uom: "µM"
  resultOperator: ">"
  IC50: 60.3
- compound: "CCCC(=O)c1ccc(=O)n(C)c1"
  uom: "µM"
  resultOperator: "="
  IC50: 1070
- compound: "COc1ccc(OC)c2c1C=CC(Br)=CC2"
  uom: "µM"
  resultOperator: "="
  IC50: 53.7
- compound: "[N-]=[NH+]CC(=O)OC(COCc1ccccc1)COCc1ccccc1"
  uom: "µM"
  resultOperator: "="
  IC50: 117
- compound: "COC1(OC)CC(CO)(CNc2nc(N)nc(Cl)c2C=O)C1"
  uom: "µM"
  resultOperator: "="
  IC50: 14.1
- compound: "CCOC(=O)C(Br)=C1OC(=O)c2ccccc2-c2ccccc21 (mixture of isomers)"
  uom: "µM"
  resultOperator: ">"
  IC50: 36.3
- compound: "COc1cc2cc(C(=O)N3CC(CCl)c4c3cc(N(C)C)c3ccccc43)[nH]c2c(OC)c1OC (stereo unspecified)"
  uom: "µM"
  resultOperator: "="
  IC50: 0.0129
- compound: "CC1(C)CCSC(/C=C/c2ccccc2)=N1"
  uom: "µM"
  resultOperator: "="
  IC50: 4.17
- compound: "CC1OC(n2cc(C(F)(F)F)c(=O)[nH]c2=O)C=CC1O (stereo unspecified)"
  uom: "µM"
  resultOperator: "="
  IC50: 148

---

The entries below come with measured pIC50 values attached.
test system: CEM cells HIV-1 protection, formazan growth assay; assay: NCI AIDS Antiviral Assay; settings: measured here: growth of uninfected CEM cells
pIC50: −log10 of the molar value.

- molecule: "CCOC(=O)c1ccc(Nc2cnc3cc(C(F)(F)F)ccc3n2)cc1"
  resultOperator: "="
  pIC50: 3.85
- molecule: "Oc1ccccc1C1SCc2nc3ccccc3n21 (stereo unspecified)"
  resultOperator: "<"
  pIC50: 4.57
- molecule: "NC1=NS(=O)(=O)Nc2nc(-c3ccccc3)c(-c3ccccc3)nc21"
  resultOperator: "="
  pIC50: 3.74
- molecule: "CCOC1=NC(C(F)(F)F)(C(F)(F)F)N=C(N2CCOCC2)O1"
  resultOperator: "<"
  pIC50: 3.70
- molecule: "Oc1ccc2ccccc2c1NCn1nc(CCCCCCCCc2nn(CNc3c(O)ccc4ccccc34)c(=S)o2)oc1=S"
  resultOperator: "="
  pIC50: 4.43
- molecule: "CC(=O)OCC1OC(N2C(c3ccccc3)=CC(c3cccs3)C(C#N)=C2S)C(OC(C)=O)C(OC(C)=O)C1OC(C)=O (stereo unspecified)"
  resultOperator: "<"
  pIC50: 3.70
- molecule: "CC1(SCC(N)C(=O)O)CC(=O)NC1=O (stereo unspecified)"
  resultOperator: "<"
  pIC50: 3.70
- molecule: "CCNC(=S)NNC(=O)c1nsc2ccccc12"
  resultOperator: "="
  pIC50: 3.73
- molecule: "CC(C)(NO)/C(=N\\O)c1ccco1"
  resultOperator: "<"
  pIC50: 3.70
- molecule: "O=C1CC(c2ccccc2)C2(C(=O)NC(=S)NC2=O)C(c2ccccc2)C1 (stereo unspecified)"
  resultOperator: "="
  pIC50: 4.26
- molecule: "O=C1/C(=C\\c2cccc(Oc3ccccc3)c2)S(=O)(=O)C(c2ccccc2)N1c1cccc(Cl)c1 (stereo unspecified)"
  resultOperator: "="
  pIC50: 4.89

---

test system: CEM cells HIV-1 protection, formazan growth assay; test: NCI AIDS Antiviral Assay
pEC50: −log10 of the molar value.
Each entry below carries its recorded pEC50.
outcomeMeasure: pEC50

- compound: "O=c1oc2ccccc2cc1F"
  system: "CEM cells HIV-1 protection, formazan growth assay"
  outcomeMeasure: "pEC50"
  obsValue: "< 3.52"
- compound: "CN1C/C(=C/c2ccc(N(C)C)cc2)C(=O)/C(=C/c2ccc(N(C)C)cc2)C1"
  system: "CEM cells HIV-1 protection, formazan growth assay"
  outcomeMeasure: "pEC50"
  obsValue: "< 3.70"
- compound: "N/C(=N\\N=C\\c1cc(I)cc(I)c1O)NO"
  system: "CEM cells HIV-1 protection, formazan growth assay"
  outcomeMeasure: "pEC50"
  obsValue: "< 3.70"
- compound: "CC(C)=CCCC(O)C1CCC2C3CCC4CCCCC4(C)C3CCC12C (stereo unspecified)"
  system: "CEM cells HIV-1 protection, formazan growth assay"
  outcomeMeasure: "pEC50"
  obsValue: "< 4.00"
- compound: "CN1C(=O)c2cccc3c([N+](=O)[O-])ccc(c23)C1=O"
  system: "CEM cells HIV-1 protection, formazan growth assay"
  outcomeMeasure: "pEC50"
  obsValue: "< 4.69"
- compound: "CC1CCCC(C(O)CC2CC(=O)NC(=O)C2)C1O (stereo unspecified)"
  system: "CEM cells HIV-1 protection, formazan growth assay"
  outcomeMeasure: "pEC50"
  obsValue: "< 3.70"
